target: Aldo-keto reductase family 1 member B1 (Homo sapiens, UniProt P15121); experiment: In vitro inhibitory activity against Aldose reductase isolated from human placenta
pIC50: −log10 of the molar value.
result_type: pIC50

Reference set, count: 2
compound	result_type	result_number
C[C@@H]1C[C@]2(NC(=O)NC2=O)c2cc(Br)cnc2O1 (racemic)	pIC50	6.30
C[C@@H]1C[C@]2(NC(=O)NC2=O)c2cc(Cl)cnc2O1 (racemic; 14)	pIC50	7.60

a. C[C@@H]1C[C@]2(NC(=O)NC2=O)c2cc(Cl)c[n+]([O-])c2O1
b. C[C@@H]1C[C@]2(NC(=O)NC2=O)c2cccnc2O1 (racemic)
Incoming: Pick one: a or b . Which one has the lower reported pIC50? Your choice should be expressed through its label.
Outgoing: b

A. O=C1NC(=O)[C@@]2(CCOc3ncc(Cl)cc32)N1 (racemic)
B. C[C@@H]1C[C@]2(NC(=O)NC2=O)c2cc(Cl)c[n+]([O-])c2O1 (racemic)
Incoming: Thinking about recorded pIC50 values, which is higher, A or B ? Kindly state the label of the option you pick.
Outgoing: B

a. C[C@@H]1C[C@]2(NC(=O)NC2=O)c2cc(F)cnc2O1 (racemic)
b. C[C@H]1C[C@@]2(NC(=O)NC2=O)c2cc(Cl)cnc2O1
c. C[C@@H]1C[C@]2(NC(=O)NC2=O)c2cc(Cl)cnc2O1 (racemic; 16)
Incoming: Ranking field: pIC50; order: falling. Answer format: the labels, ordered as requested.
Outgoing: c, a, b
